tested on: PPARa:RXRa (NR concentration 270 nM, RXRa partner concentration 90 nM); assay: PBM binding z-score (relative to random genomic background probes); higher = stronger binding; sequences stand for … in GC…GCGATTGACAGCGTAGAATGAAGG
Label true (1) when PBM binding z-score is at or above 4; otherwise label false (0).

> print(dat)
                        residue.string  group.label
 1  GGAACGAGGGCAAGTTGGTAGCAGAGTTTGATGG    false (0)
 2  CCTAGTTGCTCAGGAGGTCACACACCGGATATGA     true (1)
 3  CCTTACGGGTCACTCCAGGTTATTGCATCGGAGT     true (1)
 4  CAAACTAGGTCAAAGGTCACAGTCGAGCCAACCA     true (1)
 5  CCTATTGGGCCAAGGTCATTGATCAGTCAAAGCA    false (0)
 6  CCTTGGAGGACAACAGGAGGTCAGAGCTGCCAGA    false (0)
 7  TGTCAAAGTTCAAAGGTAACGCAAGTATCCACAC     true (1)
 8  AGAATGAGGTTATAGGTAGATCAGGGAAGAAAGT    false (0)
 9  ATCGAAAGGTCGTGAGGTGAGTATACAGAAAGGC     true (1)
10  CCTATTAGTTGACCATATGGGCAACCGAAGCTCG    false (0)
11  CGTCCAAAGTCAGAGAGGTCAGTGAATGCCGAGT    false (0)
12  GCTGCTAGGTCAACTGATGGTCAGCTCAAGCTCG    false (0)
13  TAGCCTAGGTCATGTGGGCCAGTATAGTGTCGGC    false (0)
14  ACAGACAGGTGATGAAGGTAACACAGGCTATCAT    false (0)
15  GGAACGAGTGCAAGTTGATAGCAGAGTTTGATGG    false (0)
16  ATAAGTAGGTTAGCTGGGGTCATTCAGACTAGGC     true (1)
17  ATCTCTAGGTAAGACGCAGTTCAGTGAAGAACGC    false (0)
18  ACTAGCAGGCCAAGTTTGGCTCACTCAAACAAAG    false (0)
19  CGTCCAAGGTCAATGCTAGGTCAGCGAAAGCATT     true (1)
20  AGAATGAGGTTAGTAAGATCAGGGAATTGCGGTC    false (0)

###

system: RARb homodimer (NR concentration 270 nM); experiment: PBM binding z-score (relative to random genomic background probes); higher = stronger binding; sequences stand for … in GC…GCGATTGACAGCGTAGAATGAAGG
# PBM binding z-score per record follows
Measured metric: PBM binding z-score

> print(dat)
                        residue.string                            assayed.system      measured.metric  value.measured
 1  TTCCCAAGGTGAGCTGAGGTCGTTGATCCAACTC  RARb homodimer (NR concentration 270 nM)  PBM binding z-score            1.95
 2  CAGCCTAGGTCAGGGCCAGGATAGGAGGAACGTT  RARb homodimer (NR concentration 270 nM)  PBM binding z-score            2.32
 3  CATACAGGGTCAGCTAGGCAAGAGTAGGGACGGC  RARb homodimer (NR concentration 270 nM)  PBM binding z-score             2.9
 4  CGAACTAGGTCATTGACAGGACATTGAATAGTAA  RARb homodimer (NR concentration 270 nM)  PBM binding z-score             2.8
 5  CCGAGTAGGTTATGGGGCCTTCAGGCAACGGTGA  RARb homodimer (NR concentration 270 nM)  PBM binding z-score           0.593
 6  TCTAGTTGGCCACGGAGGTCACACACGACGGGTA  RARb homodimer (NR concentration 270 nM)  PBM binding z-score            3.85
 7  CGTCCAAGGTCAAATGTCAGTGAAGAGATGACGG  RARb homodimer (NR concentration 270 nM)  PBM binding z-score            4.41
 8  CCTACTGGGCCAATCAGAGGTCATTGATCATATG  RARb homodimer (NR concentration 270 nM)  PBM binding z-score            4.14
 9  CCTCGGAGGACAGAAGGTTAGAGCTGTCCGCTTT  RARb homodimer (NR concentration 270 nM)  PBM binding z-score           0.668
10  ATCTCTAGGTAAGACACAGTTCAGTGAAGAACGC  RARb homodimer (NR concentration 270 nM)  PBM binding z-score            1.33
11  CAAACTATGTCACGAAAGGTCAAAGTCGAATGAC  RARb homodimer (NR concentration 270 nM)  PBM binding z-score            5.15
12  ATCTCTAGGTAAAGTTCCGTGAAAGATCGATAGA  RARb homodimer (NR concentration 270 nM)  PBM binding z-score         -0.0472
13  TCTTCTAGATCAAAGGTTAAGAAAGCCGAAGCCT  RARb homodimer (NR concentration 270 nM)  PBM binding z-score            1.54
14  TCGAGTAGGTTACCAATGGGGCATTCAGCTTTCT  RARb homodimer (NR concentration 270 nM)  PBM binding z-score           0.636
15  ACAGACAGGTGAGAGAAGGTAACTCAGCTGGACG  RARb homodimer (NR concentration 270 nM)  PBM binding z-score           0.122
16  ACAACGAGGGCAATGAGTTGATAGCACGGGTGGC  RARb homodimer (NR concentration 270 nM)  PBM binding z-score            1.02
17  CGAACTAGATCATCCAGGACAGTGAATACATTGA  RARb homodimer (NR concentration 270 nM)  PBM binding z-score           0.254
18  CCTATTAGTTGACCATAAAGGCAACCGAAGCTCG  RARb homodimer (NR concentration 270 nM)  PBM binding z-score           0.622
19  AGAATGAGGCTATACGTAGATCAGGGAAGAAAGT  RARb homodimer (NR concentration 270 nM)  PBM binding z-score         -0.0625
20  ATATGTAGGTTAAGGGTCATTCACGTTGGTTCGC  RARb homodimer (NR concentration 270 nM)  PBM binding z-score            3.78
21  CGAACTAGGTCAAAACAGGACAGTGAAGGATGAT  RARb homodimer (NR concentration 270 nM)  PBM binding z-score            2.27
22  AGTCAAAGTTCGCTAGGTAACGTAAGATTCAGCT  RARb homodimer (NR concentration 270 nM)  PBM binding z-score            0.79
23  CGAACTAGGTCATCCAGGACAGTGATTACATTGA  RARb homodimer (NR concentration 270 nM)  PBM binding z-score            1.77
24  TCTTGTAGATCAAGCAGGTTAAGAGAGCCTGAGT  RARb homodimer (NR concentration 270 nM)  PBM binding z-score          0.0574
